Organism: Rattus norvegicus
Assay: DrugMatrix - Regimen: Daily Repeat
Assay type: toxicity, organism-based, Sprague-Dawley
Parameters: regimen Daily Repeat, gender Male, age 6-8 weeks
Details: in vivo, po, 0 mg/kg, 120 h, tissue Plasma, route oral GAVAGE, dose level Control, time 5 day, vehicle 100 % WATER
Measured Parameter: BLOOD UREA NITROGEN (mg/dL)
Write down the numeric answer in mg/dL and omit the unit.

Could you share which BLOOD UREA NITROGEN value was measured for CNS(=O)(=O)Cc1ccc2[nH]cc(CCN(C)C)c2c1 ?
16.17

For O=C(O)c1cccnc1 [NIACIN] , what is its reported BLOOD UREA NITROGEN?
15.5

I am curious: what BLOOD UREA NITROGEN value has been reported for CC[C@H]1OC(=O)[C@H](C)[C@@H](O[C@H]2C[C@@](C)(OC)[C@@H](O)[C@H](C)O2)[C@H](C)[C@@H](O[C@@H]2O[C@H](C)C[C@H](N(C)C)[C@H]2O)[C@](C)(OC)C[C@@H](C)C(=O)[C@H](C)[C@@H](O)[C@]1(C)O [CLARITHROMYCIN] ?
14

Look up BLOOD UREA NITROGEN: CCN[C@@H](C)Cc1cccc(C(F)(F)F)c1 [DEXFENFLURAMINE]
16.33

Which BLOOD UREA NITROGEN is reported for this compound? OCCO [ETHYLENE GLYCOL]
14.17

Looking for the measured BLOOD UREA NITROGEN of CCN(CC)CC#CCOC(=O)C(O)(c1ccccc1)C1CCCCC1 (centres undefined) [OXYBUTYNIN] , can you help?
15.33

---

Organism: Rattus norvegicus
Experiment: DrugMatrix - Regimen: Daily Repeat
Format: toxicity, organism-based, Sprague-Dawley
Parameters: regimen Daily Repeat, gender Male, age 6-8 weeks
Settings: in vivo, po, 0 mg/kg, 72 h, tissue Plasma, route oral GAVAGE, dose level Control, time 3 day, vehicle .5 % CMC
Measured Parameter: CARBON DIOXIDE (mmol/L)
Return type: number; implicit unit mmol/L.

Observe how each entry below is paired with its result.
substance_smiles=CCOC(=O)[C@H](CCc1ccccc1)N[C@@H](C)C(=O)N1Cc2ccccc2C[C@H]1C(=O)O measured_parameter="CARBON DIOXIDE" unit_symbol=mmol/L reported_result=29.5
substance_smiles=CCCCC1C(=O)N(c2ccccc2)N(c2ccccc2)C1=O measured_parameter="CARBON DIOXIDE" unit_symbol=mmol/L reported_result=30
substance_smiles=C[C@@H]1CC[C@H]2[C@@H](C)C(=O)O[C@@H]3O[C@@]4(C)CC[C@@H]1[C@]32OO4 measured_parameter="CARBON DIOXIDE" unit_symbol=mmol/L reported_result=25
substance_smiles=Nc1cccc(Cl)c1 measured_parameter="CARBON DIOXIDE" unit_symbol=mmol/L reported_result=28.33
substance_smiles=CC(C)(Sc1cc(C(C)(C)C)c(O)c(C(C)(C)C)c1)Sc1cc(C(C)(C)C)c(O)c(C(C)(C)C)c1 measured_parameter="CARBON DIOXIDE" unit_symbol=mmol/L reported_result=27.5

Please report the recorded CARBON DIOXIDE for COc1ccc(/C=C/C(=O)Nc2ccccc2C(=O)O)cc1OC .
27.5

---

Organism: Rattus norvegicus
Assay: DrugMatrix - Regimen: Daily Repeat
Type: toxicity, organism-based, Sprague-Dawley
Design: regimen Daily Repeat, gender Male, age 6-8 weeks
Conditions: in vivo, po, 0 mg/kg, 72 h, tissue Blood, route oral GAVAGE, dose level Control, time 3 day, vehicle 100 % SALINE
A collection of compounds and their measured ABSOLUTE MONOCYTE
Give the value in CELLS/uL but do not write CELLS/uL after it.

compound=CCCc1nn(C)c2c(=O)[nH]c(-c3cc(S(=O)(=O)N4CCN(C)CC4)ccc3OCC)nc12 unit_symbol=CELLS/uL reported_result=122.67

Need ABSOLUTE MONOCYTE, item Cc1cc(CC(=O)O)n(C)c1C(=O)c1ccc(Cl)cc1 [ZOMEPIRAC]
0

Need ABSOLUTE MONOCYTE of CC(=O)OCC(CCn1cnc2cnc(N)nc21)COC(C)=O , thanks.
122.67

If you can, please state the reported ABSOLUTE MONOCYTE value of Oc1ccccc1O .
0
